- assay.system: mouse ACVR2A (mouse, UniProt P27038 20-135, limits assumed); note: test concentration or dose not given here
- Sequence (P27038 20-135 limits assumed): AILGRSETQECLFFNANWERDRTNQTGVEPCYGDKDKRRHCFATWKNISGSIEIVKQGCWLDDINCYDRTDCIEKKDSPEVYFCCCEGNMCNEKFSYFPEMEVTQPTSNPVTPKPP
- measurement.notes: ELISA
optical density by entry:
Note: unit OD is implicit; provide only the numeric part.

Use the examples below as a reference point.
376_G08 (antibody, V domains shown, VH/VL only) VH: EVQLLESGGGLVQPGGSLRLSCAASGFTFDSYGMNWVRQAPGKGLEWVANINYNGGYTSYADSVKGRFTISRDNSKNTLYLQMNSLRAEDTAVYYCARSANWHDTALDYWGQGTLVTVSS VL: DIQMTQSPSSLSASVGDRVTITCRASQSILSYVNWYQQKPGKAPKLVIYAATSRASGVPSRFSGSGSGTDFTLTISSLQPEDFATYYCQQSYDTPLTFGGGTKVEIK : 3.64
376_A06 (antibody, V domains shown, VH/VL only) VH: EVQLLESGGGLVQPGGSLRLSCAASGFTFDSYSMNWVRQAPGKGLEWVSGINYNSGYTSYADSVKGRFTISRDNSKNTLYLQMNSLRAEDTAVYYCARSATWHDTALDYWGQGTLVTVSS VL: DIQMTQSPSSLSASVGDRVTITCRASQSILSYLNWYQQKPGKAPKLVIYYVSNRASGVPSRFSGSGSGTDFTLTISSLQPEDFATYYCQQSYDNPLTFGGGTKVEIK : 3.74

Given 365_A01 (antibody, V domains shown, VH/VL only) VH: EVQLLESGGGLVQPGGSLRLSCAASGFTFSDYGMNWVRQAPGKGLEWVAGINYNGGYTSYADSVKGRFTISRDNSKNTLYLQMNSLRAEDTAVYYCARSATWHDTHLDYWGQGTLVTVSS VL: DIQMTQSPSSLSASVGDRVTITCRASQSILTYVNWYQQKPGKAPKLVIYATTSLASGVPSRFSGSGSGTDFTLTISSLQPEDFATYYCQQSYSTPLTFGGGTKVEIK , state its recorded optical density.
2.9
